Test: folding stability dG unfold from trypsin proteolysis; higher = more stable
We begin with a simple list: items and their reported folding stability dG unfold.
parameter-measured: folding stability dG unfold

INSERT INTO assay_data (seq_string, parameter_measured, experimental_result) VALUES
  ('SAWKIEIKEVKRNPDGWYEITITIPFPGDPNMPVDELADEILQEFGIKDVTVEPNPDNGWIEITIRIPRSAG [r14_228_TrROS]', 'folding stability dG unfold', '2.45 kcal/mol'),
  ('SSPLINILTVEVTAETPSGGSFSKTFTFPASKYTEEEIREKIKEEYPDLTDIKITPKVTKIPPGPKILLASA [r9_841_JUSTAS]', 'folding stability dG unfold', '1.29 kcal/mol'),
  ('SAGGSAGGSDMTMTYIIPLPDYAIVISFKIEITEVEYNPENGKPVKFRFDIEIKIEVFPPGDLSAGGSAGGS [r12_809_TrROS]', 'folding stability dG unfold', '3.46 kcal/mol'),
  ('SAGGSAGGSMPFIKVKVRFIEPNGIERTFEIELPEDKNLDEAIKLAPLFAKNGLPVEIEEVEGSAGGSAGGS [r12_804_TrMRF]', 'folding stability dG unfold', '0.758 kcal/mol'),
  ('SAGGMTASSTTLPPSGITSQTTTDPATGVTTTTTRYPDGTVTTTTTTALPPPAAATTTTTTALPGSAAASAG [r5_766_JUSTAS]', 'folding stability dG unfold', '1.93 kcal/mol'),
  ('NKRIKIFIGGDDPSMAEQIQQWLQDNGYNVEVHVFTSPEDMKKAREWAEQNDIVIVIQVPPPPPKDPGDNNS [r1_497_TrROS]', 'folding stability dG unfold', '2.48 kcal/mol'),
  ('SAGPVLYRVTITVEVSSSGEKGKTLTLEFLVPPSVSGEEVRDRVLALLKAQGYKVEKITVTVTPLPSSASAG [r14_979_JUSTAS]', 'folding stability dG unfold', '4.03 kcal/mol'),
  ('SAGGSAGGSAKKITVEITIEVNGKKYKVKAEIELDEETKTLTIKVTFPDGTEFEFTFKLPEESAGGSAGGSA [r18_239_TrROS_Hall]', 'folding stability dG unfold', '3.86 kcal/mol'),
  ('SAGGSAGGWITPDAAKEFADKWGFDDVNVEVLDVDPNNNYVRVKVTARNPKNGNERPIGEFWFPSAGGSAGG [r6_699_TrROS]', 'folding stability dG unfold', '0.585 kcal/mol'),
  ('SAYLMFMIPIKNDEITIKIPVPPGYYVRIFVFFPDGMEPRTIPPDEKVKIKIPKPGAWIMIMVYPAEEMSAG [r14_882_TrROS]', 'folding stability dG unfold', '3.38 kcal/mol'),
  ('MEKVLILAKIKLKGPDGEEAEIDFAVEISPEEATPELLKKVREEAEEIAEALKEKGYEVELEVEVVKLGEES [r1_221_TrMRF]', 'folding stability dG unfold', '3.62 kcal/mol'),
  ('SATFTLPDGREVEVVSVEYDPETNTVTVLVRDRETGELYVFTFERLPDGEWRIVSRERVRVEPGETVLVSAG [r14_13_TrROS_Hall]', 'folding stability dG unfold', '2.02 kcal/mol'),
  ('SAPIKIEIDVHQPPPGDYMIMVRIRPPGDGKEFPRMFPFPPDDAEKILENLLSQFPGYEIDDIEPMRYPSAG [r14_969_TrROS]', 'folding stability dG unfold', '1.26 kcal/mol'),
  ('SAGGGEYYAIVRIEVKDPESEETSELELVIPVEGLSEEEALEIARAIAETFPKENVKAEVEIVPRELSAGGS [r16_774_TrMRF]', 'folding stability dG unfold', '1.05 kcal/mol');
